FYI, the data here is from PubChem BioAssay (NCI).

# System: IGROV1 ovarian
# experimental-details: NCI-60 one-dose screen, 48 h (100 = growth as untreated, 0 = no growth, -100 = all killed)
# details: 10 µM unless noted
The panel holds about 83,000 compounds, 20% with a hit somewhere; the sample as a whole holds those more often.
Item-by-item account of growth
Give your result in % as a bare value.

- compound: "COC(=O)C1CC(=O)N(C(=O)Nc2ccc(Cl)cc2Cl)C1 (stereo unspecified)"
  growth / %: 107

If you can, please state the reported growth value of FC(F)(F)c1cccc(-c2[nH]ncc2-c2nnnn2-c2ccccc2)c1 . 56.2

If you can, please state the reported growth value of CCCCCCCCCCCCCCCCCCOP(=O)(O)O . 110

If you can, please state the reported growth value of CC(CCN1CCN(CCC(C)CC(C)(C)C)C1CC(C)CC(C)(C)C)CC(C)(C)C (stereo unspecified) . 81.7

If you can, please state the reported growth value of CCOC(=O)CNS(=O)(=O)CC(=O)c1ccccc1 . 94.6

If you can, please state the reported growth value of O=C(Nc1cccc(Cn2c(=O)[nH]c3ccc(Oc4ncccn4)cc3c2=O)c1)c1cc(Cl)cc(Cl)c1 . 49

* * *

# Test system: SF-295 CNS
# experimental-details: NCI-60 one-dose screen, 48 h
# details: 10 µM unless noted
The panel holds about 83,000 compounds, 20% with a hit somewhere; the sample as a whole holds those more often. The source made the active and inactive calls. The calls were made as follows: active = growth percent below 10; inactive = the rest.
In this exercise, the only acceptable responses are active, inactive

Worked set:
- molecule: "Nc1ccc(S(=O)(=O)c2ccc(NO)cc2)cc1"
  assigned-class: "inactive"
- molecule: "COC(=O)C(C)[C@H]1CC[C@@H]2[C@]1(C)CC=C1[C@]23C=C[C@]2(C[C@@H](OC(C)=O)CC[C@]12C)C(C(=O)OC)C3C(=O)OC (some centres not stated)"
  assigned-class: "inactive"
- molecule: "COc1cc(NC(=O)CSc2nc3ccc(Cl)cc3c(=O)n2-c2ccc(F)cc2)cc(OC)c1OC"
  assigned-class: "inactive"
- molecule: "C/C(=N\\Nc1ccc(Cl)cn1)c1ccccn1"
  assigned-class: "active"
- molecule: "COC(=O)c1c[n+]([O-])ccc1OC"
  assigned-class: "inactive"
- molecule: "NCCCOc1cc(Cl)ccc1NC(=O)c1cc2ccccc2cc1OCCCN"
  assigned-class: "active"

Which outcome did this test record for the molecule O=C(C(=O)N1CCOCC1)c1ccc(O[C@H]2O[C@H](CO)[C@@H](O)[C@H](O)[C@@H]2O)cc1 ? inactive

Which outcome did this test record for the molecule CCCOC(=O)c1c(C)n(C)c2scc[n+]12 ? inactive

Which outcome did this test record for the molecule COc1ccc(C2=NN(C(=O)c3cc(-c4ccc(C)cc4)nc4ccccc34)C(c3cc(-c4ccccc4)nn3-c3ccccc3)C2)cc1 (configuration not stated) ? inactive

* * *

Item-by-item account of growth
# System: HCT-116 colon
# experimental-details: NCI-60 one-dose screen, 48 h (100 = growth as untreated, 0 = no growth, -100 = all killed)
# details: 10 µM unless noted
Compounds without any hit were thinned out: in the full panel of roughly 83,000, 20% have a hit.
Give your result in % as a bare value.

Past entries and their recorded results:
- compound: "CCCCCSc1ccc2nc(NC(=O)OCC)sc2c1"
  tgt: "HCT-116 colon"
  measured-metric: "growth"
  endpoint-result: 26
- compound: "Cc1ccc(C(C)C)c(OCc2ccc(C(=O)N/N=C/c3cccc(O)c3O)cc2)c1"
  tgt: "HCT-116 colon"
  measured-metric: "growth"
  endpoint-result: 20.4
- compound: "CCCCCCC(=O)C(C)C"
  tgt: "HCT-116 colon"
  measured-metric: "growth"
  endpoint-result: 101
- compound: "COc1ccc(-c2nc(SCC(C)C)nc(Nc3ccc([N+](=O)[O-])cc3)c2C#N)cc1"
  tgt: "HCT-116 colon"
  measured-metric: "growth"
  endpoint-result: 60.1

If you can, please state the reported growth value of CC(=O)O.[In] . 106

If you can, please state the reported growth value of OCC(O)C(O)CC1SCCS1 (configuration not stated) . 104

If you can, please state the reported growth value of COC(=O)c1ccc2[nH]c(O)c(C(=Nc3ccc(N(C)C(=O)CN4CCN(C)CC4)cc3)c3ccc(CCO)cc3)c2c1 . 9.37
